All figures here come from paper PMC6520677.

- System: Enterococcus faecalis ATCC 29212
- Protocol summary: MIC, broth microdilution (CLSI)
- Format: cell-based
- Particulars: ATCC29212, E. faecalis ATCC 29212, read-out: MIC

| Compound | Target system | MIC |
| --- | --- | --- |
| C[C@@H]1NC(=O)[C@H](Cc2c[nH]c3ccccc23)NC1=O [Cyclo-L-Trp-L-Ala (10), cyclo-L-Trp-L-Ala] | Enterococcus faecalis ATCC 29212 | > 128 µg/mL |
| COc1cc(O)c2c(c1)C(=O)c1cc(C)cc(O)c1C2=O [Physcion (3), physcion] | Enterococcus faecalis ATCC 29212 | > 32 µg/mL |
| COc1cc(O)c2c(c1)C(=O)c1cc(C)c(C(=O)O)c(O)c1C2=O [Cinnalutein (9), cinnalutein] | Enterococcus faecalis ATCC 29212 | > 128 µg/mL |
| CCCCCCCc1c(O)cc(CC=C(C)C)c(O)c1C=O [Flavoglaucin (5), flavoglaucin] | Enterococcus faecalis ATCC 29212 | > 32 µg/mL |
| COc1cc(O)cc2cc3c(c(O)c12)C(=O)C[C@](C)(O)C3 [Asperflavin (8), asperflavin] | Enterococcus faecalis ATCC 29212 | > 128 µg/mL |
| C=CC(C)(C)c1[nH]c2cc(CC=C(C)C)ccc2c1/C=C1\NC(=O)[C@H](C)NC1=O [Neoechinulin D (7), neoechinulin D] | Enterococcus faecalis ATCC 29212 | > 128 µg/mL |
| CNC(C)C1CCC(N)C(OC2C(N)CC(N)C(OC3OCC(C)(O)C(NC)C3O)C2O)O1 (stereo not shown) [Gentamicin, reference compound] | Enterococcus faecalis ATCC 29212 | > 128 µg/mL |
